# Tested on: HL-60
# PROTOCOL_SUMMARY: NCI tumour cell line growth inhibition, 48 h
Calls of active or inactive are those of the source. Cut-off read from the data, not from the text of the source: active = GI50 up to about 1.1 µM and inactive = higher.
Respond using exactly one of the listed classes: active, inactive

Each compound tested received a call. Report the one for "COc1cc(O)c2c(=O)c(O)c(-c3ccc(O)c(O)c3)oc2c1" . inactive

Each compound tested received a call. Report the one for "CCOP(=O)(OCC)/C(=C/n1c(=S)[nH]c2ccccc21)C(=O)OC" . inactive

Each compound tested received a call. Report the one for "O=C(N/C(=C\c1ccc([N+](=O)[O-])cc1)c1nc2ccccc2[nH]1)c1ccccc1" . inactive

Each compound tested received a call. Report the one for "Cc1csc2n(C)c(=O)c3ccccc3[n+]12" . inactive

Each compound tested received a call. Report the one for N#CC1=C(S)N(C2OC(CO)C(O)C(O)C2O)C(c2ccccc2)=CC1c1ccccc1 (stereo not drawn) . inactive

Each compound tested received a call. Report the one for "Cc1ccc(S(=O)(=O)NCCCSCCO)cc1" . inactive

Each compound tested received a call. Report the one for "CCOC(=O)c1cccc(/N=N/c2ncc(/C=C/C(=O)OC)[nH]2)c1" . inactive

Each compound tested received a call. Report the one for "O=CC(I)=C(c1ccccc1)c1ccccc1" . inactive

Each compound tested received a call. Report the one for "CC(C)(C)O/N=C/c1cc(NC(=S)c2ccccc2)ccc1Cl" . inactive

Each compound tested received a call. Report the one for O=C(Nc1ccc(Cl)cc1Cl)C1C(=O)N(c2ccc(Cl)cc2Cl)C(=O)/C1=N\Nc1ccc([N+](=O)[O-])cc1[N+](=O)[O-] (stereo not drawn) . inactive

Each compound tested received a call. Report the one for "CCOC(=O)Cn1c(C(F)(F)F)nc2nc(Cl)c(Cl)nc21" . inactive

Each compound tested received a call. Report the one for "O=C1C(Cl)=C(N2CCN(CCOCCO)CC2)C(=O)c2ccccc21" . inactive

Each compound tested received a call. Report the one for CN1C(=O)CCC1(O)C1C=CC=CC1 (stereo not drawn) . inactive

Each compound tested received a call. Report the one for "COc1ccc2c(c1)/C(=C(\C(Cl)=C(\Cl)N1CCCCC1)[N+](=O)[O-])N2" . inactive

Each compound tested received a call. Report the one for COc1cc(C2c3cc4c(cc3OC(NNc3ccccc3)C2C)OCO4)cc(OC)c1OC (stereo not drawn) . inactive

Each compound tested received a call. Report the one for "C#CC[C@]12CC(=O)CC[C@H]1CC1(C2)OCCO1" . inactive

Each compound tested received a call. Report the one for "CC(=O)Nc1ccc(-c2nnc(SCC(=O)Nc3cccc([N+](=O)[O-])c3)o2)cc1" . inactive

Each compound tested received a call. Report the one for "Cc1c2cc[n+](C)cc2c(C)c2c1sc1ccccc12" . inactive

Each compound tested received a call. Report the one for "COc1c2cc(C(C)(C)C)cc1Cc1cccc(c1OCc1cccc([N+](=O)[O-])c1)Cc1cc(C(C)(C)C)cc(c1OC)Cc1cccc(c1OCc1cccc([N+](=O)[O-])c1)Cc1cc(C(C)(C)C)cc(c1OC)Cc1cccc(c1OCc1cccc([N+](=O)[O-])c1)C2" . inactive

Each compound tested received a call. Report the one for "COc1ccc(C(=O)/C=C/c2ccc(Oc3cc(C(=O)/C=C/c4ccc(O)cc4)c(O)cc3OC)cc2)c(O)c1" . inactive

Each compound tested received a call. Report the one for "CCOC(=O)c1c(SCCN(CC)CC)n(-c2ccccc2)c(=S)n(-c2ccccc2)c1=O" . inactive

Each compound tested received a call. Report the one for c1ccc(C2CC(c3ccc4ccccc4c3)=Nc3ccccc3S2)cc1 (stereo not drawn) . inactive

Each compound tested received a call. Report the one for Nc1ncnn2c(C3OC(CO)C(O)C3O)ccc12 (stereo not drawn) . active
